# study system: Pim-3 (Homo sapiens, UniProt Q86V86)
Structures can show the parent of a compound that is named as a salt.
quantity name: IC50

Query: If you can, please state the reported IC50 value of C[C@H]1CN(c2c(NC(=O)c3ccc(F)c(-c4c(F)cccc4F)n3)cnc3c2CC[C@H]3O)C[C@@H](N)[C@@H]1O [Compound 1 di-HCl salt, dihydrochloride] .
Reply: < 35 nM

###

# study system: PIM kinase
# assay summary: Pim enzyme assays (isoform not given)
# experimental context: 1 mM ATP; Pim isoform not stated
quantity name: IC50

Query: If you can, please state the reported IC50 value of C[C@H]1CN(c2c(NC(=O)c3ccc(F)c(-c4c(F)cccc4F)n3)cnc3c2CC[C@H]3O)C[C@@H](N)[C@@H]1O .
Reply: < 100 nM

###

# study system: Pim-2 (Homo sapiens, UniProt Q9P1W9)
# Construct: purchased Invitrogen PV3649
# Sequence (Q9P1W9 whole entry): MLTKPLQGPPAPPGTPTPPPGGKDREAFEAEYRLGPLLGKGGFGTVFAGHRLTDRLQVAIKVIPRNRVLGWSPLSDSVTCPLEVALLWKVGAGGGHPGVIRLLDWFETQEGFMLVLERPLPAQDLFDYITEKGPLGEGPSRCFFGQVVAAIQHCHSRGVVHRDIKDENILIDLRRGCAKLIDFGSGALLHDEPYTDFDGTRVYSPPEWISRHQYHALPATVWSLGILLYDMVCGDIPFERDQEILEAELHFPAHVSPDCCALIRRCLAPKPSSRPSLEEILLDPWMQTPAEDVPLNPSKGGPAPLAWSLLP
# assay summary: Pim-2 kinase assay
# Assay type: biochemical
# experimental context: 1 mM ATP; read-out: IC50 PIM2 Enzyme (Ex. A)
pIC50: −log10 of the molar value. Structures can show the parent of a compound that is named as a salt.
quantity name: pIC50

Query: If you can, please state the reported pIC50 value of C[C@H]1CN(c2c(NC(=O)c3ccc(F)c(-c4c(F)cccc4F)n3)cnc3c2CC[C@H]3O)C[C@@H](N)[C@@H]1O [Compound 1 di-HCl salt, dihydrochloride] .
Reply: > 7.46
